Kindly state ED50 for each of the entries shown.
SYSTEM TESTED: UniProt:P35968
PARTICULARS: CHO
Numbers only, in nM.

# count of solved cases: 4
Cc1cccc(Nc2nnc(Cc3ccncc3)c3ccccc23)c1 ... 8
FC(F)(F)c1cc(Br)cc(Nc2nnc(Cc3ccncc3)c3ccccc23)c1 ... 39
Clc1ccc(Nc2nnc(Cc3ccncc3)c3ccccc23)cc1Cl ... 27
Fc1cc(Nc2nnc(Cc3ccncc3)c3ccccc23)cc(C(F)(F)F)c1 ... 40

Would you mind giving ED50 for every compound in the list below?
1. Cc1cc(C)cc(Nc2nnc(Cc3ccncc3)c3ccccc23)c1
2. Cc1cc(C)c(/C=C2\C(=O)Nc3ccccc32)[nH]1 [SEMAXANIB]

10
930

----------
IC50, Vascular endothelial growth factor receptor 1 (Homo sapiens): measured values
One number for each entry, in nM.

# annotated cases, reported IC50 shown
Cc1cc(C)cc(Nc2nnc(Cc3ccncc3)c3ccccc23)c1 ... 150
Clc1ccc(Nc2nnc(NCc3ccncc3)c3ccccc23)cc1 ... 2600

For Clc1ccc(Nc2nnc(Cc3cccnc3)c3ccccc23)cc1 the molecule record lists IC50 as 9800

----------
Kindly supply the reported Cmax values for the records listed here.
PROTOCOL NOTES: The maximum concentration observed (Cmax) in the blood sample at indicated time point (tmax) at a dose 50 mg/Kg administered orally in mice.
Assay type: ADME, organism-based
Set-up: dose 50 mg/Kg, route oral
PARTICULARS: mouse, in vivo, po
One number for each entry, in µM.

Examples with answers:
Clc1ccc(Nc2nnc(Cc3ccncc3)c3ccccc23)cc1.O=C(O)CCC(=O)O ... 32
COc1cc(Nc2nnc(Cc3ccncc3)c3ccccc23)ccc1Cl ... 8

Alright, here's another molecule for you.
GET /value?item= COc1cccc(Nc2nnc(Cc3ccncc3)c3ccccc23)c1 &field=Cmax returns 21

----------
Consider the following compounds; for each one, report its IC50.
SYSTEM TESTED: Vascular endothelial growth factor receptor 2 (Homo sapiens, UniProt P35968)
Sequence (P35968 whole entry): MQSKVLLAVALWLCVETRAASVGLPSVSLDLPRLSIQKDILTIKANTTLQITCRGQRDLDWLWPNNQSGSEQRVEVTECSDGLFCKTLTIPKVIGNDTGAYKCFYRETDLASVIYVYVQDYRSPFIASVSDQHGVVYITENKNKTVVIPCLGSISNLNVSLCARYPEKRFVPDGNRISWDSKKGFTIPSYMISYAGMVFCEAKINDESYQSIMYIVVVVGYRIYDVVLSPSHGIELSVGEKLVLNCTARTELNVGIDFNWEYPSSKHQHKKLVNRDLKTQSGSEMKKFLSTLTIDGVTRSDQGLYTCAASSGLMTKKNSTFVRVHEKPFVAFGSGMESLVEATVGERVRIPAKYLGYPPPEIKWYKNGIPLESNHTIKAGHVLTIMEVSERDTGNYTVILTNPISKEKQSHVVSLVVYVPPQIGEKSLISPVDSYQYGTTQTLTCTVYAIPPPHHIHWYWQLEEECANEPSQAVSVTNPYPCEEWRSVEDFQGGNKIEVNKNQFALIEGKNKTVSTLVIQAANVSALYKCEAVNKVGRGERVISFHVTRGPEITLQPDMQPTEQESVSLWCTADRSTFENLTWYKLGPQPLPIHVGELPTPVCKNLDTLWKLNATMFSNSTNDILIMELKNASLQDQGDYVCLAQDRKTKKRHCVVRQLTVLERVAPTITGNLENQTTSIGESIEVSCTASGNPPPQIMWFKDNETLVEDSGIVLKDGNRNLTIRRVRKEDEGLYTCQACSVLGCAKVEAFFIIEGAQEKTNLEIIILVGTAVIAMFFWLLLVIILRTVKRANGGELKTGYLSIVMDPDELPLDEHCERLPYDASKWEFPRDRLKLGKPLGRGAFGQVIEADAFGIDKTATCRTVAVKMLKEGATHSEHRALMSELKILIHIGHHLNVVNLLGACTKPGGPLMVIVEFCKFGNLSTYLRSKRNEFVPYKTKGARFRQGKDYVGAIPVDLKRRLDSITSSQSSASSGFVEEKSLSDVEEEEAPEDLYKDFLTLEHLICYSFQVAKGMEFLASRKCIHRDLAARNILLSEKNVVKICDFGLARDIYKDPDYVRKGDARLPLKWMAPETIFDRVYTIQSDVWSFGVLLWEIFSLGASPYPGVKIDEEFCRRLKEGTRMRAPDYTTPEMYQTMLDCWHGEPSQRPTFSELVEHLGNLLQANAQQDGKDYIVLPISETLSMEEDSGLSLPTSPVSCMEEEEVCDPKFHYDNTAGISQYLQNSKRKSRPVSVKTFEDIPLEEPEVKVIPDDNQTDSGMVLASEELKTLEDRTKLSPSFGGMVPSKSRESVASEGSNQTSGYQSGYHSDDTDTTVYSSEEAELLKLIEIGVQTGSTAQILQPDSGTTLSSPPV

Take a look at these entries with their results.
Clc1ccc(Nc2nnc(Cc3ccncc3)c3c2CCCC3)cc1 ... > 10 µM
Cc1cc(Cc2nnc(Nc3ccc(Cl)cc3)c3ccccc23)cc(C)n1 ... > 10 µM

API: the following record is the query input.
Record Clc1ccc(Nc2nnc(Cc3ccccn3)c3ccccc23)cc1 / Vascular endothelial growth factor receptor 2 (Homo sapiens, UniProt P35968), IC50 recorded as > 10 µM
